- study_target: T1, rhNav1.7α + β1-β2-β3 (rhesus monkey)
- T1 construct: also called rhNav1.7-beta1-beta2-beta3; rhNav1.7-β1-β2-β3
- method_notes: FACS, CHO Flp-In, competitor 1 µM F010300703
measured_quantity: MFI (MFI)
# number only, unit MFI dropped from output

Worked set:
{"columns": ["binder", "measurement_unit", "MFI"],
 "data": [
  ["F0103PMP478E09 (bispecific antibody, Screened as crude periplasmic extract; also called F103275B05(N93R)-50GS-F0103478E09 bivalent ISVD) EVQLVESGGGLVQPGGSLRLSCAASGSIFNINSMAWYRRAPGKQRELVASSTNGGSTNYADSVKGRFTISRDNAKRVYLQMNSLTPEDTAVYYCRALLQPSIYDISRTYWGQGTLVTVSSGGGGSGGGGSGGGGSGGGGSGGGGSGGGGSGGGGSGGGGSGGGGSGGGGSEVQLVESGGGLVQAGGSLRLSCAASGRAFSTLAMGWFRQAPGKEREFVAAISRNGNNSATGDSLKGRFTISRDSTKSTVFLQMNTLKPEDTAVYYCAAISTPSASHPYVRKESYRYWGQGTQVTVSSAAADYKDHDGDYKDHDIDYKDDDDKGAAHHHHHHKAAGGGGG", "MFI", 60600],
  ["F0103PMP492E09 (bispecific antibody, crude periplasmic extract; also called F103275B05(N93R)-50GS-F0103492E09 bivalent ISVD) EVQLVESGGGLVQPGGSLRLSCAASGSIFNINSMAWYRRAPGKQRELVASSTNGGSTNYADSVKGRFTISRDNAKRVYLQMNSLTPEDTAVYYCRALLQPSIYDISRTYWGQGTLVTVSSGGGGSGGGGSGGGGSGGGGSGGGGSGGGGSGGGGSGGGGSGGGGSGGGGSEVQLVESGGGLVQAGGSLRLSCAASKSILSFAYMRWYRQAPGKQREFVASIAIGGATSYTDSVKGRFTISRDNAKNTVYLQMNSLKPEDTAVYYCSAPAGQYRGQGTLVTVSSAAADYKDHDGDYKDHDIDYKDDDDKGAAHHHHHHKAAGGGGG", "MFI", 25200],
  ["F0103PMP495F09 (bispecific antibody, crude periplasmic extract; also called F103275B05(N93R)-50GS-F0103495F09 bivalent ISVD) EVQLVESGGGLVQPGGSLRLSCAASGSIFNINSMAWYRRAPGKQRELVASSTNGGSTNYADSVKGRFTISRDNAKRVYLQMNSLTPEDTAVYYCRALLQPSIYDISRTYWGQGTLVTVSSGGGGSGGGGSGGGGSGGGGSGGGGSGGGGSGGGGSGGGGSGGGGSGGGGSEVQLVESGGGLVQAGSSLSLSCAASGRALSTYAMGWFRQAPGKEREFVARISRSGITTYYTDSVKGRFTISRDRAKDTVYLQMNSLKPEDTAIYLCAADASTNPAGYYLRNRYDYWGQGTLVTVSSAAADYKDHDGDYKDHDIDYKDDDDKGAAHHHHHHKAAGGGGG", "MFI", 6280]
]}

[ask] Query MFI for F0103PMP500E03 (bispecific antibody, crude periplasmic extract; also called F103275B05(N93R)-50GS-F0103500E03 bivalent ISVD) EVQLVESGGGLVQPGGSLRLSCAASGSIFNINSMAWYRRAPGKQRELVASSTNGGSTNYADSVKGRFTISRDNAKRVYLQMNSLTPEDTAVYYCRALLQPSIYDISRTYWGQGTLVTVSSGGGGSGGGGSGGGGSGGGGSGGGGSGGGGSGGGGSGGGGSGGGGSGGGGSEVQLVESGGGLVQAGGSLRLSCAASGRTFSRYQMGWFRQAPGKEREFVAYISWSGSTRYVDSVKGRFTISRDNAKNTVYLQMNSLKPEDTAVYHCAAGTAGIISSRPETYDSWGQGTQVTVSSAAADYKDHDGDYKDHDIDYKDDDDKGAAHHHHHHKAA
[reply] 21500

[ask] Fill in MFI for record F0103PMP505D08 (bispecific antibody, crude periplasmic extract; also called F103275B05(N93R)-50GS-F0103505D08 bivalent ISVD) EVQLVESGGGLVQPGGSLRLSCAASGSIFNINSMAWYRRAPGKQRELVASSTNGGSTNYADSVKGRFTISRDNAKRVYLQMNSLTPEDTAVYYCRALLQPSIYDISRTYWGQGTLVTVSSGGGGSGGGGSGGGGSGGGGSGGGGSGGGGSGGGGSGGGGSGGGGSGGGGSEVQLVESGGGLVQAGGSLRLSCVTSGRTSDLSTMNWFRQAPGKEREFVARITRRGSTYYAESVKERFIISRDNAKNTVYLQMNSLKPEDTANYYCTAASEMGYHYRGQGTQVTVSSAAADYKDHDGDYKDHDIDYKDDDDKGAAHHHHHHKAAGGGGG
[reply] 22500
